experiment: chemical genetic growth profiling, strain panel (AID 1159580);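 note: tested at 20 µM; growth read once vehicle control cultures reached saturation at 30 °C; 1 = growth at the plate median or of vehicle wells; lower values mean less growth of the strain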; settings: S. cerevisiae deletion strains, growth OD, locus YOR106W, strain vam3, active compounds read low
Hit rate of the full screen: of about 5,500 compounds, about 2,000 (36%) were called active. About 18% were inconclusive and are not listed. The list shows a part of the results.
MEASUREMENT LABEL: normalized growth

Hello, please tell me recorded normalized growth for this one: CC1CC2C3CCC4=CC(=O)C=C[C@]4(C)[C@@]3(F)[C@@H](O)C[C@]2(C)[C@@]1(O)C(=O)CO (some centres not stated) 0.942 (inactive)

Hello, please tell me recorded normalized growth for this one: COc1ccc(OC)c(C(O)C(C)N)c1 (configuration not stated) 0.986 (inactive)

Hello, please tell me recorded normalized growth for this one: COc1cc(NS(=O)(=O)c2ccc(N)cc2)nc(OC)n1 0.977 (inactive)

Hello, please tell me recorded normalized growth for this one: NCCSSCCN 0.985 (inactive)

Hello, please tell me recorded normalized growth for this one: CCCCCCCCCCCCCCCC[N+](C)(C)C 0.0616 (active)

Hello, please tell me recorded normalized growth for this one: CCCCNc1cc(C(=O)O)cc(S(N)(=O)=O)c1Oc1ccccc1 1.03 (inactive)

Hello, please tell me recorded normalized growth for this one: CN1CCc2cc3c(cc2[C@H]1C1OC(=O)c2c1ccc1c2OCO1)OCO3 (some centres not stated) 0.99 (inactive)

Hello, please tell me recorded normalized growth for this one: CN1CCCN=C1COC(=O)C(O)(c1ccccc1)C1CCCCC1 (configuration not stated) 1.01 (inactive)

Hello, please tell me recorded normalized growth for this one: CC(C(=O)O)c1cccc(C(=O)c2ccccc2)c1 (configuration not stated) 0.963 (inactive)

Hello, please tell me recorded normalized growth for this one: COc1ccc2cc([C@H](C)CO)ccc2c1 1 (inactive)

Hello, please tell me recorded normalized growth for this one: CC(C)OC(=O)C(C)(C)Oc1ccc(C(=O)c2ccc(Cl)cc2)cc1 0.927 (inactive)

Hello, please tell me recorded normalized growth for this one: CC(=O)NC1SCCC1=O (configuration not stated) 1.01 (inactive)
